# maps each entry to its pronephric angle neck segment
system: Danio rerio Tg(wt1b:EGFP) embryo, pronephros; assay: pronephric angle neck segment to proximal convoluted tubule (mean of left and right), fold change vs DMSO control; higher = larger pronephric angle; settings: 25 µM; exposure: 24-48 hpf
Counter-ions that a name gives are not always drawn.
Output: the number by itself.

| molecule | study.target | pronephric angle neck segment |
| --- | --- | --- |
| O=C(CCCN1CCC2(CC1)C(=O)NCN2c1ccccc1)c1ccc(F)cc1 | Danio rerio Tg(wt1b:EGFP) embryo, pronephros | 1.06 |

Then this molecule:
Q: Looking for the measured pronephric angle neck segment of CN[C@@H]1C[C@@H](c2ccc(Cl)c(Cl)c2)c2ccccc21 [Indatraline hydrochloride] , can you help?
Ans: 0.976

====

Reported values of glomerular width for individual entries
tested on: Danio rerio Tg(wt1b:EGFP) embryo, pronephros; test: glomerular width (mean of left and right), fold change vs DMSO control; higher = wider glomerulus; settings: 25 µM; exposure: 24-48 hpf
Write the value as a bare number.

Q: So what does the record say about glomerular width for "C[C@]12CCC(=O)C(O)=C1CC[C@@H]1[C@@H]2CC[C@]2(C)C(=O)CC[C@@H]12" ?
Ans: 0.866

====

tested on: Danio rerio Tg(wt1b:EGFP) embryo, pronephros; test: fraction of imaged embryos annotated as normal kidney; higher = less nephrotoxic; extreme values may be limits of the assay; details: 25 µM; exposure: 24-48 hpf
Where a name gives a salt, the structure may show the parent alone.
quantity.name: fraction of imaged embryos annotated as normal kidney

| compound | val |
| --- | --- |
| NCC(CC(=O)O)c1ccc(Cl)cc1 (racemic) [Baclofen (R,S)] | 0.833 |
| CC(Cc1ccccc1)NCCC(c1ccccc1)c1ccccc1 (centres undefined) [Prenylamine lactate] | 0.727 |
| CCNCC(O)c1cccc(O)c1 (centres undefined) [Etilefrine hydrochloride] | 0.833 |
| CNC(C)(C)Cc1ccccc1 [Mephentermine hemisulfate] | 1 |
| CN1[C@@H]2C[C@@H](OC(=O)[C@H](CO)c3ccccc3)C[C@H]1[C@@H]1O[C@@H]12 [Scopolamine hydrochloride] | 0.833 |
| CC[C@@H](CO)NC(=O)[C@@H]1C=C2c3cccc4[nH]cc(c34)C[C@H]2N(C)C1 [Methylergometrine maleate] | 0.909 |
| C[C@]12CCC(=O)C=C1CC[C@@H]1[C@@H]2C(=O)C[C@]2(C)C(=O)CC[C@@H]12 | 1 |
| C[C@]12CC[C@@H]3c4ccc(OC(=O)N(CCCl)CCCl)cc4CC[C@H]3[C@@H]1CC[C@@H]2O | 0.333 |

Consider the additional compound presented here.
Q: Request: fraction of imaged embryos annotated as normal kidney, test system Danio rerio Tg(wt1b:EGFP) embryo, pronephros, entry CCCN1C[C@H](CSC)C[C@@H]2c3cccc4[nH]cc(c34)C[C@H]21 [Pergolide mesylate]
Ans: 1

====

system: Danio rerio Tg(wt1b:EGFP) embryo, pronephros; test: pronephric angle neck segment to proximal convoluted tubule (mean of left and right), fold change vs DMSO control; higher = larger pronephric angle; conditions: 25 µM; exposure: 24-48 hpf
quantity.name: pronephric angle neck segment

Some solved entries appear below for comparison.
| compound | val |
| --- | --- |
| COc1ccc(CCN)cc1OC [Homoveratrylamine] | 0.972 |
| CC(=O)O[C@H]1CC[C@@]2(C)C(=CC[C@@H]3[C@@H]2CC[C@]2(C)C(=O)CC[C@@H]32)C1 [Dehydroisoandosterone 3-acetate] | 1.02 |

Q: Fill in: pronephric angle neck segment of O=C(CCCN1CCC(n2c(=O)[nH]c3ccccc32)CC1)c1ccc(F)cc1 [Benperidol] is ___
Ans: 0.992

====

tested on: Danio rerio Tg(wt1b:EGFP) embryo, pronephros; experiment: pronephric angle neck segment to proximal convoluted tubule (mean of left and right), fold change vs DMSO control; higher = larger pronephric angle; settings: 25 µM; exposure: 24-48 hpf
Structures can show the parent of a compound that is named as a salt.
quantity.name: pronephric angle neck segment
Number, no unit, nothing else.

| compound | quantity.name | val |
| --- | --- | --- |
| CC(=O)OC1CN2CCC1CC2 (stereo not drawn) [Aceclidine Hydrochloride] | pronephric angle neck segment | 0.99 |

Q: Endpoint output: pronephric angle neck segment of CC(C)(N)Cc1ccccc1 [Phentermine hydrochloride] . Value?
Ans: 0.979

Q: Look at this compound and give its reported pronephric angle neck segment. COc1cccc(C2(O)CCCCC2CN(C)C)c1 (stereo not drawn) [Tramadol hydrochloride]
Ans: 0.999

Q: Look up pronephric angle neck segment for this compound: CN1[C@@H]2C[C@@H](OC(=O)[C@H](CO)c3ccccc3)C[C@H]1[C@@H]1O[C@@H]12 [Scopolamine hydrochloride]
Ans: 0.984

Q: // returns reported pronephric angle neck segment for input CN1[C@@H]2CC[C@H]1C[C@@H](OC(=O)C(CO)c1ccccc1)C2 (stereo partly drawn) [Atropine sulfate monohydrate]
Ans: 1

Q: If you can, please state the reported pronephric angle neck segment value of COc1ccc(OC)c(C(O)C(C)N)c1 (stereo not drawn) [Methoxamine hydrochloride] .
Ans: 0.976

Q: Which pronephric angle neck segment is listed for COc1ccc(CN2CCNCC2)c(OC)c1OC [Trimetazidine dihydrochloride] ?
Ans: 0.982

Q: Fill in: pronephric angle neck segment of C[N+](C)(C)CCCCCCCCCC[N+](C)(C)C [Decamethonium bromide] is ___
Ans: 1.02

====

tested on: Danio rerio Tg(wt1b:EGFP) embryo, pronephros; experiment: glomerular width (mean of left and right), fold change vs DMSO control; higher = wider glomerulus; details: 25 µM; exposure: 24-48 hpf
Where a name gives a salt, the structure may show the parent alone.
quantity.name: glomerular width
Answer with a number only.

The cases that follow already have their glomerular width on record.
| molecule | study.target | val |
| --- | --- | --- |
| Cc1cccc(C)c1NC1=NCCCS1 | Danio rerio Tg(wt1b:EGFP) embryo, pronephros | 0.997 |
| CCC1(C)CC(=O)NC(=O)C1 [Bemegride] | Danio rerio Tg(wt1b:EGFP) embryo, pronephros | 0.997 |

Q: For the molecule shown here, S=C(NC1CCCCC1)N1CCC(c2cnc[nH]2)CC1 [Thioperamide maleate] , give the reported glomerular width.
Ans: 0.974

Q: What value of glomerular width has been reported for the following molecule? "C[C@]12CC[C@@H](O)C[C@@H]1CC[C@@H]1[C@@H]2CC[C@]2(C)C(=O)CC[C@@H]12"
Ans: 0.991

Q: Entry CC(N)C(O)c1ccccc1 (configuration not stated) [Phenylpropanolamine hydrochloride] has what glomerular width?
Ans: 0.982

Q: Quick check: glomerular width of "CC(C)c1cccc(C(C)C)c1O" ?
Ans: 1.02

Q: Field request: glomerular width | item: Oc1ccc2c3c1O[C@H]1[C@@H](O)CC[C@@]4(O)[C@@H](C2)N(CC2CCC2)CC[C@]314 [Nalbuphine hydrochloride]
Ans: 1

====

system: Danio rerio Tg(wt1b:EGFP) embryo, pronephros; assay: pronephric angle neck segment to proximal convoluted tubule (mean of left and right), fold change vs DMSO control; higher = larger pronephric angle; details: 25 µM; exposure: 24-48 hpf
Structures can show the parent of a compound that is named as a salt.
quantity.name: pronephric angle neck segment
Please reply with the number alone, leaving off any unit.

| compound | pronephric angle neck segment |
| --- | --- |
| C#C[C@]1(O)CC[C@H]2[C@@H]3CCC4=CC(=O)CC[C@]4(C)[C@H]3CC[C@@]21C | 1.06 |
| COc1ccc(Cc2nccc3cc(OC)c(OC)cc23)cc1OC [Papaverine hydrochloride] | 0.968 |
| CC(C)N(CCC(C(N)=O)(c1ccccc1)c1ccccn1)C(C)C (stereo unspecified) [Disopyramide] | 1.05 |
| C[C@@H]1CC[C@H]2[C@@H](C)C(=O)O[C@@H]3O[C@@]4(C)CC[C@@H]1[C@]32OO4 | 1.05 |
| CC(=O)O[C@H]1C[C@@H]2CC[C@@H]3[C@H](CC[C@@]4(C)[C@H]3C[C@H]([N+]3(C)CCCCC3)[C@@H]4OC(C)=O)[C@@]2(C)C[C@@H]1[N+]1(C)CCCCC1 [Pancuronium bromide] | 0.955 |

Q: pronephric angle neck segment for "C[C@@H]1O[C@@H](O[C@@H]2C=C3CC[C@@H]4[C@H](CC[C@]5(C)[C@@H](c6ccc(=O)oc6)CC[C@]45O)[C@@]3(C)CC2)[C@H](O)[C@H](O)[C@H]1O" ?
Ans: 1.26

Q: Quick one: pronephric angle neck segment of CN(C)C(=O)Oc1cc(OC(=O)N(C)C)cc(C(O)CNC(C)(C)C)c1 (stereo unspecified) [Bambuterol hydrochloride] ?
Ans: 1.01

Q: Any idea what its pronephric angle neck segment is? The compound is "CC(=O)OCC1=C(C(=O)O)N2C(=O)[C@@H](N)[C@H]2SC1"
Ans: 0.977

====

test system: Danio rerio Tg(wt1b:EGFP) embryo, pronephros; test: glomerular width (mean of left and right), fold change vs DMSO control; higher = wider glomerulus; settings: 25 µM; exposure: 24-48 hpf
Counter-ions that a name gives are not always drawn.
Listed next: entries and their corresponding glomerular width.
Form rule: numeric answer, no unit written next to it.

See these solved cases before continuing.
| compound | glomerular width |
| --- | --- |
| O=P1(NCCCl)OCCCN1CCCl (centres undefined) [Ifosfamide] | 0.999 |
| C1CCc2nnnn2CC1 [Pentylenetetrazole] | 0.994 |
| c1ccc2c(c1)OCC(C1=NCCN1)O2 (centres undefined) [Idazoxan hydrochloride] | 0.991 |

Q: Entry CN[C@@H]1[C@@H](O)[C@@H](O[C@@H]2[C@@H](O)[C@H](O[C@H]3O[C@H](CN)CC[C@H]3N)[C@@H](N)C[C@H]2N)OC[C@]1(C)O.CN[C@@H]1[C@@H](O)[C@@H](O[C@@H]2[C@@H](O)[C@H](O[C@H]3O[C@H]([C@@H](C)N)CC[C@H]3N)[C@@H](N)C[C@H]2N)OC[C@]1(C)O.CN[C@@H]1[C@@H](O)[C@@H](O[C@@H]2[C@@H](O)[C@H](O[C@H]3O[C@H]([C@@H](C)NC)CC[C@H]3N)[C@@H](N)C[C@H]2N)OC[C@]1(C)O [Gentamicine sulfate] : reported glomerular width = ?
Ans: 1.02
